TEST_TARGET: PKA type Iα (RIα/Cα) holoenzyme (Homo sapiens, UniProt P10644)
ASSAY_NOTES: Cook coupled spectrophotometric kinase assay, suppression (antagonist) assay, PKA type Iα
Assay type: biochemical
ASSAY_CONDITIONS: Table 1 (Example 83), PKA type Iα
VALUE_KIND: Antagonist

INSERT INTO assay_data (compound, readout_value) VALUES
  ('Nc1ncnc2c1nc(-c1ccc(Br)o1)n2C1OC2COP(O)(=S)OC2C1O (stereo not shown) [Rp-8-(2-Br-5-furyl)-cAMPS]', 'yes*'),
  ('CCc1nc2c(N)ncnc2n1C1OC2COP(O)(=S)OC2C1O (stereo not shown) [Rp-8-ethyl-cAMPS]', 'yes'),
  ('Nc1ncnc2c1nc(-c1ccccc1)n2C1OC2COP(O)(=S)OC2C1O (stereo not shown) [Rp-8-phenyl-cAMPS]', 'yes'),
  ('Nc1ncnc2c1nc(-c1ccsc1)n2C1OC2COP(O)(=S)OC2C1O (stereo not shown) [Rp-8-(3-thienyl)-cAMPS]', 'yes');

* * *

TEST_TARGET: PKA type Iα (RIα/Cα) holoenzyme (Homo sapiens)
ASSAY_NOTES: Cook coupled spectrophotometric kinase assay, suppression (antagonist) assay, PKA type Iα
ASSAY_CONDITIONS: Table 1 (Example 83), PKA type Iα; unit inferred; read-out: EC50 inhibition
Counter-ions that a name gives are not always drawn.
VALUE_KIND: EC50
Put down the number, then write its unit next to it.

// below: answered compounds
INSERT INTO results (compound, test_target, value_kind, readout_value) VALUES
  ('Nc1ncnc2c1nc(-c1ccco1)n2C1OC2COP(O)(=S)OC2C1O (stereo not shown) [Rp-8-(2-furyl)-cAMPS, ammonium salt]', 'PKA type Iα (RIα/Cα) holoenzyme (Homo sapiens)', 'EC50', '319 nM'),
  ('Nc1ncnc2c1nc(-c1cc3ccccc3o1)n2C1OC2COP(O)(=S)OC2C1O (stereo not shown)', 'PKA type Iα (RIα/Cα) holoenzyme (Homo sapiens)', 'EC50', '2780 nM'),
  ('Nc1ncnc2c1nc(-c1ccccc1)n2C1OC2COP(O)(=S)OC2C1O (stereo not shown)', 'PKA type Iα (RIα/Cα) holoenzyme (Homo sapiens)', 'EC50', '1060 nM');

Please find the next compound below.
# EC50 lookup, item Nc1ncnc2c1nc(-c1ccc(Br)o1)n2C1OC2COP(O)(=S)OC2C1O (stereo not shown) 3000 nM
